Tgt: panel of 203 kinases (Homo sapiens)
Construct: purchased DiscoverX (KINOMEscan)
Run description: KINOMEscan competitive binding, whole panel
Setup conditions: 10 µM, n=1; kinase IGF1R; read-out: Percent inhibition IGF1R
Metric: inhibition at 10 µM (%)
Kindly provide the numeric value in % only, without the unit symbol.

Some compounds with known inhibition at 10 µM results, for comparison:
CN1CCN(c2ccc(Nc3nccc(-c4cnn5ncccc45)n3)cc2C#N)CC1 [Compound 1] = 99.4
C[C@@H](Oc1cc(-c2cnc3ccccn23)sc1C(N)=O)c1ccccc1Cl [Compound 8] = 0
Nc1ncc2c(-c3ccncc3)c[nH]c2n1 [Compound 11] = 0
Clc1ccc(Nc2ncc(-c3ccccc3)s2)cc1 [Compound 10] = 0

// next item, inhibition at 10 µM requested
So, Cc1ccc(O)cc1N(C)c1ccnc(Nc2cccc(S(N)(=O)=O)c2)n1 [Compound 4] ? Its inhibition at 10 µM was 0

###

Tgt: panel of 203 kinases (Homo sapiens)
Construct: purchased DiscoverX (KINOMEscan)
Run description: KINOMEscan competitive binding, whole panel
Setup conditions: 10 µM, n=1; kinase ERK2; read-out: Percent inhibition ERK2
From the text: The kinases were expressed as fusions to T7 bacteriophage. This is a sensitive, competitive binding assay where test compounds were used to displace immobilized ATP-site binding probe ligands from kinases of interest. The amount of kinase that remained bound to the immobilized probe ligands on the solid support was quantified. Percentage inhibition data were was plotted on kinome trees using the web-based tool KinMap (http://www.kinhub.org/kinmap) ([60]).
Metric: inhibition at 10 µM (%)
Kindly provide the numeric value in % only, without the unit symbol.

Some molecules with known inhibition at 10 µM results, for comparison:
COc1cc(Nc2nccc(-c3sc(N)nc3-c3cccc(NC(=O)c4c(F)cccc4F)c3)n2)cc(OC)c1OC = 100
COc1ccc(Nc2nccc(-c3cnn4ncccc34)n2)cc1 = 99.2
Cc1ccc(O)cc1Nc1ccnc(Nc2cccc(C(N)=O)c2)n1 = 0
C[C@@H](Oc1cc(-c2cnc3ccccn23)sc1C(N)=O)c1ccccc1Cl = 80.6
c1ccc(COc2cccc(-c3ccnc4[nH]ccc34)c2)cc1 = 0

So, "CN1CCN(c2ccc(Nc3nccc(-c4cnn5ncccc45)n3)cc2C#N)CC1" ? Its inhibition at 10 µM was 100

So, "Clc1ccc(Nc2ncc(-c3ccccc3)s2)cc1" ? Its inhibition at 10 µM was 0

###

Tgt: PRKG1 (Homo sapiens, UniProt Q13976)
Construct: purchased DiscoverX (KINOMEscan)
Sequence (Q13976 whole entry): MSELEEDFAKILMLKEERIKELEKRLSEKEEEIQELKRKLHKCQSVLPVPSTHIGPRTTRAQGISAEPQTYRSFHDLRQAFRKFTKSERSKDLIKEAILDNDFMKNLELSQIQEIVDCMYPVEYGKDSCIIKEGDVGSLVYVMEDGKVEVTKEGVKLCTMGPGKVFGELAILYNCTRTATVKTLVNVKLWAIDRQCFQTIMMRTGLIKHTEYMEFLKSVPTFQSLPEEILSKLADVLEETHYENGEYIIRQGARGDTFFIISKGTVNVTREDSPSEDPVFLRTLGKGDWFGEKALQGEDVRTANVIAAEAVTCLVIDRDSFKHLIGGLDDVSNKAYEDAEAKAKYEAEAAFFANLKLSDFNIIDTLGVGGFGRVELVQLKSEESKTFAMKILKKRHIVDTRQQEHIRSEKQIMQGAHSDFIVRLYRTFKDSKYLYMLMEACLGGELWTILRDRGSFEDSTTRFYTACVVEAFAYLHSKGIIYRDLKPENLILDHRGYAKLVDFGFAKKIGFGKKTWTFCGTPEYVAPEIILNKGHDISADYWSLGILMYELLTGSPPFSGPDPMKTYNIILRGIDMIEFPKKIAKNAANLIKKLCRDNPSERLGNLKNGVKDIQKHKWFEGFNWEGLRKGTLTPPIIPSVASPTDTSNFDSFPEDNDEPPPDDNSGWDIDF
Run description: KINOMEscan competitive binding
Setup conditions: n=1, read-out: Percent inhibition, PRKG1
Below, each entry is listed alongside its reported inhibition at 10 µM.
Kindly provide the numeric value in % only, without the unit symbol.

Some compounds with known inhibition at 10 µM results, for comparison:
CN1CCN(c2ccc(Nc3nccc(-c4cnn5ncccc45)n3)cc2C#N)CC1 [Compound 1] = 0
Nc1ncc2c(-c3ccncc3)c[nH]c2n1 [Compound 11] = 0
COc1cc(Nc2nccc(-c3sc(N)nc3-c3cccc(NC(=O)c4c(F)cccc4F)c3)n2)cc(OC)c1OC [Compound 7] = 0
COc1ccc(Nc2nccc(-c3cnn4ncccc34)n2)cc1 [Compound 2] = 0
C[C@@H](Oc1cc(-c2cnc3ccccn23)sc1C(N)=O)c1ccccc1Cl [Compound 8] = 0
Cc1ccc(O)cc1N(C)c1ccnc(Nc2cccc(S(N)(=O)=O)c2)n1 [Compound 4] = 0
c1ccc(COc2cccc(-c3ccnc4[nH]ccc34)c2)cc1 [Compound 9] = 0
Fc1cccc(COc2ccc(Nc3ncnc4c3CN(CCN3CCOCC3)CC4)cc2Cl)c1 [Compound 6] = 0
Clc1ccc(Nc2ncc(-c3ccccc3)s2)cc1 [Compound 10] = 0

// next item, inhibition at 10 µM requested
So, Cc1ccc(O)cc1Nc1ccnc(Nc2cccc(C(N)=O)c2)n1 [Compound 3] ? Its inhibition at 10 µM was 0
